List of IC50 values.
- system_name: IL-17A(FLAG-Tagged): IL-17RA(His-Tagged) (Homo sapiens, UniProt Q16552, K93Q)
- Sequence (Q16552 with tags, fused parts or gaps K93Q): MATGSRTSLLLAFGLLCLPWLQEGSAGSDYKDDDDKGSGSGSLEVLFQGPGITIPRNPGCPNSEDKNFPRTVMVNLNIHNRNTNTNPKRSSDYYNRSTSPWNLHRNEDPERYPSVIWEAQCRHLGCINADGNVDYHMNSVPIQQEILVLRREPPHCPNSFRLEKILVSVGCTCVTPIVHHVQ
- method_notes: IL-17A(FLAG-Tagged): IL-17RA(His-Tagged) Binding Disruption Eu-HTRF Assay
- measurement_context: IL-17A/IL-17RA binding disruption, simple average if tested more than once
measured_parameter: IC50 (nM)

> print(dat)
                                   compound  value
1  CC(C)n1nccc1C(=O)N[C@H](c1cn2ncc([C@H](NC(=O)C[C@@H]3CC3(F)F)C3CC3)cc2n1)C1CCC(F)(F)CC1 (single isomer, unassigned)    130
2  O=C(CCC(F)(F)F)N[C@@H](c1cnn2cc([C@@H](NC(=O)c3cnn(CCF)n3)C3CCC(F)(F)CC3)nc2c1)C1CC1    150
3  O=C(CCC(F)(F)F)N[C@@H](c1cnn2cc([C@@H](NC(=O)c3cnnn3CCOC(F)F)C3CCC(F)(F)CC3)nc2c1)C1CC1    180
4  O=C(CCC(F)F)N[C@@H](c1cnn2cc([C@@H](NC(=O)c3conc3OCC(F)F)C3CCC(F)(F)CC3)nc2c1)C1CC1    310
5  O=C(CCC(F)(F)F)N[C@@H](c1cnn2cc([C@@H](NC(=O)c3cncc(OCC(F)F)c3)C3CCC(F)(F)CC3)nc2c1)C1CC1     69
6  [2H]C([2H])([2H])n1nccc1C(=O)N[C@H](c1cn2ncc([C@H](NC(=O)CCC(F)(F)F)C3CC3)cc2n1)C1CCC(F)(F)CC1     95
